# IC50 listing for each entry below
System: HUT
TEST METHOD NOTES: HUT cell inhibition assay (WST-1 cell viability)
Format: cell-based
CONDITIONS: HUT cells, 72-96 h, WST-1 assay, IC50 range

What value of measured IC50 is listed for O=C(NO)c1cnc(N2CC3C(C2)C3NC(=O)c2ccc3occc3c2)nc1 (stereo not shown) [Example 16] ?
< 330 nM

###

System: HeLa cells
TEST METHOD NOTES: HeLa cell inhibition assay (SRB cell viability)
Assay type: cell-based
CONDITIONS: Homo sapiens, HeLa, 72 h, IC50 range
pIC50: −log10 of the molar value.
# pIC50 listing for each entry below

[[record]]
compound = "O=C(NO)c1cnc(N2CC3C(C2)C3NC(=O)c2cccs2)nc1 (stereo not shown) [Example 18]"
assayed_target = "HeLa cells"
data_value = "< 5.48"


Can you look up pIC50 on HeLa cells for O=C(NO)c1cnc(N2CC3CN(S(=O)(=O)c4cc(C(F)(F)F)cc(C(F)(F)F)c4)CC3C2)nc1 (stereo not shown) [Example 81] ?
< 5.48

Can you look up pIC50 on HeLa cells for O=C(NO)c1cnc(N2CC3C(C2)C3NC(=O)C2CCCCC2)nc1 (stereo not shown) [Example 12] ?
5.48 to 6.48

Can you look up pIC50 on HeLa cells for O=C(NO)c1cnc(N2CC3C(C2)C3NC(=O)c2ccc3sccc3c2)nc1 (stereo not shown) [Example 17] ?
5.48 to 6.48

Can you look up pIC50 on HeLa cells for COc1ccc2c(c1)CCC2N1CC2CN(c3ncc(C(=O)NO)cn3)CC2C1 (stereo not shown) [Example 80] ?
> 6.48

Can you look up pIC50 on HeLa cells for CN(C)CCN(C1C2CN(c3ncc(C(=O)NO)cn3)CC21)S(=O)(=O)c1ccc2ccccc2c1 (stereo not shown) [Example 52] ?
5.48 to 6.48

Can you look up pIC50 on HeLa cells for O=C(Cc1ccc(-c2ccccc2)cc1)NC1C2CN(c3ncc(C(=O)NO)cn3)CC21 (stereo not shown) [Example 19] ?
> 6.48

Can you look up pIC50 on HeLa cells for CCCCc1ccc(CNC2C3CN(c4ncc(C(=O)NO)cn4)CC32)cc1 (stereo not shown) [Example 23] ?
5.48 to 6.48

Can you look up pIC50 on HeLa cells for O=C(NO)c1cnc(N2CC3CN(S(=O)(=O)c4ccc(OC(F)(F)F)cc4)CC3C2)nc1 (stereo not shown) [Example 82] ?
5.48 to 6.48

Can you look up pIC50 on HeLa cells for O=C(NO)c1cnc(N2CC3C(C2)C3NCc2ccc3cc(F)ccc3n2)nc1 (stereo not shown) [Example 44] ?
> 6.48
